Where do these numbers come from? They come from patent US7060718B2.

measurement-label: melting point (°C)

| structure-as-smiles | measured-number |
| --- | --- |
| COc1ccc(NS(=O)(=O)c2c(F)c(F)c(F)c(F)c2F)cc1NC(N)=O | 226 |
| COc1ccc(NS(=O)(=O)c2c(F)c(F)c(F)c(F)c2F)cc1NC(=O)NCc1ccco1 | 208 |
